B1: Rab-like protein 2A (Homo sapiens), Q9UBK7 (parent)
chain: MAEDKTKPSELDQGKYDADDNVKIICLGDSAVGKSKLMERFLMDGFQPQQLSTYALTLYKHTATVDGKTILVDFWDTAGQERFQSMHASYYHKAHACIMVFDIQRKVTYRNLSTWYTELREFRPEIPCIVVANKIDDINVTQKSFNFAKKFSLPLYFVSAADGTNVVKLFNDAIRLAVSYKQNSQDFMDEIFQELENFSLEQEEEDVPDQEQSSSIETPSEEVASPHS
partner: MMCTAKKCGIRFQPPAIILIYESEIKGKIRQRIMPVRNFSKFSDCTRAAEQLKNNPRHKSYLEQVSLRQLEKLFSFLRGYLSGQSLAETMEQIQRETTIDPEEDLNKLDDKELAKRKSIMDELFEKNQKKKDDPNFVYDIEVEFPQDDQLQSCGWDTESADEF

Variants of: B1
Conditions: with cep19_human CEP19, Q96LK0
Value kind: effect of a mutation on the interaction

>>> df
   variant_key                               value_kind     assay_value
0         T53M  effect of a mutation on the interaction  with no effect
1         A94T  effect of a mutation on the interaction  with no effect
2        L119F  effect of a mutation on the interaction  with no effect
3         R82Q  effect of a mutation on the interaction  with no effect

Measured values drawn from IntAct's records for PubMed 31515488 for this set.
